The measured values listed here are drawn from patent US6426360B1.

target: Human COX I (Homo sapiens, UniProt P23219); construct: A 2.0 kb fragment containing the coding region of either human or murine COX-I or human or murine COX-II; made in house; host or cells: SF9 insect cells (recombinant baculovirus, transfer vector pVL1393); test: COX I activity in vitro (PGE2 ELISA, recombinant enzyme); assay type: biochemical; conditions: arachidonic acid 10 μM, pre-incubation 10-20 minutes; read-out: Human COX I ID50
Sequence (P23219 24-599): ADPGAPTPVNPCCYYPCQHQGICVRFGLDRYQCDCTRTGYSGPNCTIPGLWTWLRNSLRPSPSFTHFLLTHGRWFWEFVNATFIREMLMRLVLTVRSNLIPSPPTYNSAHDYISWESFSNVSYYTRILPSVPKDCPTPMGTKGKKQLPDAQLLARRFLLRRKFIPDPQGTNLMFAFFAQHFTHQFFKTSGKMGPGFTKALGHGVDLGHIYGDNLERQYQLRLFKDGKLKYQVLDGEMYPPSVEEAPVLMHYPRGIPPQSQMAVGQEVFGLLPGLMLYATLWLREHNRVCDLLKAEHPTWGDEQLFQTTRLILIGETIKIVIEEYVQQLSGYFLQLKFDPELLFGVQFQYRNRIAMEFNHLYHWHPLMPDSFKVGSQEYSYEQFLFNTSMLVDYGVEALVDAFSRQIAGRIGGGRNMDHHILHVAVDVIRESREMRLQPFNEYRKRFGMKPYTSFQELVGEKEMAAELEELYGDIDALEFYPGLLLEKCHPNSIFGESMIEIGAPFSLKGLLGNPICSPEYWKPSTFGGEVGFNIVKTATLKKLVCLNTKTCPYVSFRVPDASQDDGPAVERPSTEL
pIC50: −log10 of the molar value.
endpoint.label: pIC50

// solved cases for pIC50 follow
compound	pIC50
CCOCc1nc(-c2ccc(F)cc2)c(-c2ccc(S(C)(=O)=O)cc2)[nH]1	4.11
CS(=O)(=O)c1ccc(-c2nc(C(F)(F)F)[nH]c2-c2cccnc2)cc1	< 4.00
CS(=O)(=O)c1ccc(-c2nc(-c3ccoc3)[nH]c2-c2ccc(F)cc2)cc1	< 4.00
CS(=O)(=O)c1ccc(-c2[nH]c(C(=O)CCc3ccccc3)nc2-c2ccc(F)cc2)cc1	< 4.00
Cc1ccc(-c2[nH]c(C(F)(F)F)nc2-c2ccc(S(C)(=O)=O)cc2)cc1	4.70

Retrieve pIC50 measured for CS(=O)(=O)c1ccc(-c2nc(C(F)(F)F)[nH]c2-c2ccc(F)cc2)cc1 and print it.
< 4.00

Retrieve pIC50 measured for CC(F)(F)c1nc(-c2ccc(F)cc2)c(-c2ccc(S(C)(=O)=O)cc2)[nH]1 and print it.
< 4.00

Retrieve pIC50 measured for Cn1c(C(F)(F)F)nc(-c2ccc(S(C)(=O)=O)cc2)c1-c1ccc(F)cc1 and print it.
< 4.00

Retrieve pIC50 measured for CS(=O)(=O)c1ccc(-c2nc(C(F)(F)F)[nH]c2-c2ccc(F)cc2F)cc1 and print it.
< 4.00

Retrieve pIC50 measured for COC(C)c1nc(-c2ccc(F)cc2)c(-c2ccc(S(C)(=O)=O)cc2)[nH]1 (centres unmarked) and print it.
< 4.00

Retrieve pIC50 measured for CS(=O)(=O)c1ccc(-c2nc(C(F)(F)F)[nH]c2C2CCCCCC2)cc1 and print it.
< 4.00

* * *

Listing: melting point of selected molecules

// solved cases for melting point follow
CS(=O)(=O)c1ccc(-c2nc(C(F)(F)F)[nH]c2C2CCCCC2)cc1 250 to 253 °C
CS(=O)(=O)c1ccc(-c2nc(-c3ccoc3)[nH]c2-c2ccc(F)cc2)cc1 233 to 235 °C (dec.)
COc1ccc(-c2nc(C(F)(F)F)[nH]c2-c2ccc(S(C)(=O)=O)cc2)cc1OC 221 to 224 °C
Cc1c(F)cccc1-c1[nH]c(C(F)(F)F)nc1-c1ccc(S(C)(=O)=O)cc1 192 to 196 °C

Now for a further molecule.
Retrieve melting point measured for COc1ccc(-c2[nH]c(C(F)(F)F)nc2-c2ccc(S(C)(=O)=O)cc2)cc1F and print it.
228 to 234 °C

* * *

Listing: IC50 of selected compounds
Molecular target: Human COX II (Homo sapiens, UniProt P35354)
Construct: A 2.0 kb fragment containing the coding region of either human or murine COX-I or human or murine COX-II
Sequence (P35354 18-604): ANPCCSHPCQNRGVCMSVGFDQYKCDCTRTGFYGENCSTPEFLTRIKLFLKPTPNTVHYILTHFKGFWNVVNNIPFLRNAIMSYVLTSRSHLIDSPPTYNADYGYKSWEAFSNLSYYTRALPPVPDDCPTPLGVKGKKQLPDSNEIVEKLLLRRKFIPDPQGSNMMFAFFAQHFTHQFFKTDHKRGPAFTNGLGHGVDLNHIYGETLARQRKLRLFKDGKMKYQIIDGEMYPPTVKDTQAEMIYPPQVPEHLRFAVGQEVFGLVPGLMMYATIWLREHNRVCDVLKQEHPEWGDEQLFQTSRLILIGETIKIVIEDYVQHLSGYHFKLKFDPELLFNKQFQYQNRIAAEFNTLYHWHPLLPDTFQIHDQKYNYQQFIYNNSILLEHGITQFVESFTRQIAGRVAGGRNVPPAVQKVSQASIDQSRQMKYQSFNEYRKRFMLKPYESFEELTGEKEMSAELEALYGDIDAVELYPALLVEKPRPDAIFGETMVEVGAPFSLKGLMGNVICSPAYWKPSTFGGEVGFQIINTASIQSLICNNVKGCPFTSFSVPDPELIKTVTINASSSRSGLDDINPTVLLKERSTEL
Experiment: COX II activity in vitro (PGE2 ELISA, recombinant enzyme)
Details: arachidonic acid 10 μM, pre-incubation 10-20 minutes; read-out: Human COX II ID50
Procedure: The COX II inhibition activity of the compounds of this invention illustrated in the Examples was determined by the following methods. […] COX activity was assayed as PGE2 formed/μg protein/time using an ELISA to detect the prostaglandin released. […] The PGE2 formed was measured by standard ELISA technology (Cayman Chemical).

// solved cases for IC50 follow
compound	readout.value
CS(=O)(=O)c1ccc(-c2nc(C(F)(F)F)[nH]c2C2CCCCCC2)cc1	3 µM
COC(C)c1nc(-c2ccc(F)cc2)c(-c2ccc(S(C)(=O)=O)cc2)[nH]1 (stereo not shown)	6.4 µM
CS(=O)(=O)c1ccc(-c2[nH]c(C(=O)C(F)(F)F)nc2-c2ccc(F)cc2)cc1	5.3 µM

Now for a further compound.
Retrieve IC50 measured for CC(=O)c1nc(-c2ccc(F)cc2)c(-c2ccc(S(C)(=O)=O)cc2)[nH]1 and print it.
4.3 µM
